Please respond with reported IC90 for every item in the list.
Tested on: M. tuberculosis H37Rv growth inhibition with meropenem
Test Summary: dose response, H37Rv, with and without meropenem (AID 434987);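 also: growth over 7 days at 37 °C before Alamar Blue read on day 9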
Condition Info: measured here: IC90 with meropenem

// known answers, use as guide
Compound	Test Target	IC90
COc1ccc(OC)c(C2CC(c3c(-c4ccccc4)c4cc(Cl)ccc4[nH]c3=O)=NN2S(C)(=O)=O)c1 (stereo not given)	M. tuberculosis H37Rv growth inhibition with meropenem	> 100 µM
Cc1cccc(N2CCN(CC3CCCCC3)CC2)c1C	M. tuberculosis H37Rv growth inhibition with meropenem	53.2 µM
COc1ccc([N+](=O)[O-])cc1C1NN=C(c2ccccc2O)S1 (stereo not given)	M. tuberculosis H37Rv growth inhibition with meropenem	> 100 µM
Cc1ccc(SCc2c(C#N)c3ccccc3n2C)cc1	M. tuberculosis H37Rv growth inhibition with meropenem	> 100 µM

Continue with the next compound.
Reported IC90, compound CN(Cc1ccccc1)C(=S)NC(=O)c1ccc(-c2ccccc2)cc1 : ____
> 100 µM
